Test: qHTS assay to identify small molecule antagonists of the glucocorticoid receptor (GR) signaling pathway - cell viability counter screen (AID 720693); also: nearly all actives have a fitted effect of over 55% in size
Conditions: GR-bla HeLa viability, CellTiter-Glo luminescence, 18 h, with 5 nM dexamethasone present; series mostly up to 58.5 µM
Inconclusive results are not listed. Calls of active or inactive are those of the source. Calls follow the shape of the dose curve; as a rule, active = well fitted cell-killing curve with a large enough effect in the repeat runs; inconclusive = weak or mixed curves, or effect the other way; inactive = no such curve, though single readings can be large or run the other way.
Possible outcomes: true (1) for active, false (0) for inactive

INSERT INTO assay_data (compound, cat) VALUES
  ('F[B-](F)(F)F', 'false (0)'),
  ('CS(=O)(=O)OCCCCOS(C)(=O)=O', 'false (0)'),
  ('CCCCCCc1ccc(O)cc1O', 'false (0)'),
  ('O=C(O)c1ccccc1', 'false (0)'),
  ('CC(=O)Nc1c(I)c(NC(C)=O)c(I)c(C(=O)O)c1I', 'false (0)'),
  ('Cc1cc(C)nc(NS(=O)(=O)c2ccc(N)cc2)n1', 'false (0)'),
  ('CCCCNC(=O)NS(=O)(=O)c1ccc(C)cc1', 'false (0)'),
  ('Nc1ccc(S(N)(=O)=O)cc1', 'false (0)'),
  ('Cc1cccc(C)c1', 'false (0)'),
  ('Cc1cc(=O)oc2cc(O)ccc12', 'false (0)'),
  ('Nc1ccc([N+](=O)[O-])cc1O', 'false (0)'),
  ('O=C1NC(=O)C(c2ccccc2)(c2ccccc2)N1', 'false (0)'),
  ('CC(=O)CCC(=O)O', 'false (0)'),
  ('CCCc1cc(=O)[nH]c(=S)[nH]1', 'false (0)'),
  ('NC1CCCCC1', 'false (0)'),
  ('NC(=O)c1cccnc1', 'false (0)'),
  ('COc1ccc(CN(CCN(C)C)c2ccccn2)cc1', 'false (0)'),
  ('CNNCc1ccc(C(=O)NC(C)C)cc1', 'false (0)'),
  ('C/C=C/C=C/C(=O)O', 'false (0)'),
  ('Nc1c(N=Nc2ccc(-c3ccc(N=Nc4cc(S(=O)(=O)O)c5ccccc5c4N)cc3)cc2)cc(S(=O)(=O)O)c2ccccc12', 'false (0)'),
  ('CCCCC(CC)C(=O)O (stereo not given)', 'false (0)'),
  ('NS(=O)(=O)c1cc2c(cc1Cl)NCNS2(=O)=O', 'false (0)'),
  ('NC(=O)n1c(O)c(C(=O)c2cccs2)c2cc(Cl)ccc21', 'false (0)'),
  ('C=C(C)C(=O)OCC(C)O (stereo not given)', 'false (0)'),
  ('C=C1CC[C@H](O)C/C1=C\C=C1/CCC[C@]2(C)[C@@H]([C@H](C)CCCC(C)C)CC[C@@H]12', 'true (1)'),
  ('COc1ccc(OC(F)(F)F)cc1CN[C@H]1CCCN[C@H]1c1ccccc1', 'false (0)'),
  ('CN(C)CCOC(c1ccccc1)c1ccccc1', 'false (0)'),
  ('Cc1cn([C@H]2C=C[C@@H](CO)O2)c(=O)[nH]c1=O', 'false (0)'),
  ('CCCCOC(=O)c1ccc(O)cc1', 'false (0)'),
  ('COc1ccc2c(c1)c(CC(=O)O)c(C)n2C(=O)c1ccc(Cl)cc1', 'false (0)'),
  ('C1CCC(C(CC2CCCCN2)C2CCCCC2)CC1 (stereo not given)', 'true (1)'),
  ('O=c1[nH]cnc2c1ncn2[C@H]1CC[C@@H](CO)O1', 'false (0)'),
  ('CC1(C)S[C@@H]2[C@H](NC(=O)[C@H](N)c3ccccc3)C(=O)N2[C@H]1C(=O)O', 'false (0)'),
  ('O=C1NS(=O)(=O)c2ccccc21', 'false (0)'),
  ('CCOc1ccc(NC(C)=O)cc1', 'false (0)'),
  ('CCCC[P+](CCCC)(CCCC)CCCC', 'false (0)'),
  ('CCc1nc(N)nc(N)c1-c1ccc(Cl)cc1', 'false (0)'),
  ('CCCCCCCC(=O)OCC(COC(=O)CCCCCCC)OC(=O)CCCCCCC', 'false (0)'),
  ('O=c1[nH]cc(F)c(=O)[nH]1', 'false (0)'),
  ('O=C(O)CC(O)C(=O)O (stereo not given)', 'false (0)'),
  ('CC(O)(P(=O)(O)O)P(=O)(O)O', 'false (0)'),
  ('CN(C)C(=S)SC(=S)N(C)C', 'false (0)'),
  ('CN1CCC[C@H]1c1cccnc1', 'false (0)'),
  ('CC(C)NCC(O)c1ccc(O)c(O)c1 (stereo not given)', 'false (0)'),
  ('C[C@](N)(Cc1ccc(O)c(O)c1)C(=O)O', 'false (0)'),
  ('CCCCC1(COC(=O)CCC(=O)O)C(=O)N(c2ccccc2)N(c2ccccc2)C1=O', 'false (0)'),
  ('O=CC(=O)c1ccccc1', 'false (0)'),
  ('CC1(C)O[C@@H]2C[C@H]3[C@@H]4CCC5=CC(=O)C=C[C@]5(C)[C@@]4(F)[C@@H](O)C[C@]3(C)[C@]2(C(=O)CO)O1', 'false (0)'),
  ('Cc1ncc([N+](=O)[O-])n1C', 'false (0)'),
  ('Oc1ccccc1', 'false (0)');
